These data points were gathered from PubChem BioAssay AID624167.

- SYSTEM TESTED: UniProtKB Q6IN02
- Sequence (Q6IN02 whole entry, looked up): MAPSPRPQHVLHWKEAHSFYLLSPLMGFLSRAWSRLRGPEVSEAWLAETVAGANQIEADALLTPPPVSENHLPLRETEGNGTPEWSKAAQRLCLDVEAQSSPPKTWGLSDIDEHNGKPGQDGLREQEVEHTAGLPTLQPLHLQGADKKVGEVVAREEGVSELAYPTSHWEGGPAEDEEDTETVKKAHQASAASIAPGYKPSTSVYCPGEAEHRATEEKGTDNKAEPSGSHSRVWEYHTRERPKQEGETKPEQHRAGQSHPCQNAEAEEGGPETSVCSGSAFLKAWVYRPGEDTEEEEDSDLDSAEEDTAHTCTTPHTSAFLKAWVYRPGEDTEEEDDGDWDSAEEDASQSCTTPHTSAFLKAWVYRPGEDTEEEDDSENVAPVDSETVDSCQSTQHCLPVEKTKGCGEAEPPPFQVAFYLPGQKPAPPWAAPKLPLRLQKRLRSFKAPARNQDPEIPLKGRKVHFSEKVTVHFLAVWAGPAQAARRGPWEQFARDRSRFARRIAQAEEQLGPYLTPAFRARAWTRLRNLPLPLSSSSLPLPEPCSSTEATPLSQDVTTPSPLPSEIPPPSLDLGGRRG
- TEST METHOD NOTES: Peg3 promoter luciferase inhibitors, potency, dose response, cell-based, HeLa, CREF/GAPDH counter-screen panel (AID 624167)
- TEST CONTEXT: HeLa PEG-Prom luciferase reporter, overnight, CREF/GAPDH counter-screens, mean of runs
Activity calls are given as the source filed them.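 The calls were made as follows: active = mean IC50 for reducing PEG3 promoter reporter signal at or below a set limit, with IC50 above the limit in both counter screens; inactive = the rest, including counter screen hits.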
API: response.call in 1 = active, 0 = inactive

Which outcome did this test record for the molecule "CC(C)n1nc(C(=O)Oc2cc(Cl)ccc2Cl)c2ccccc2c1=O" ? 0

I would be grateful if you could indicate the recorded call for "CC(C)c1ccc(/C=N/Nc2ccc(C(=O)O)cc2)cc1" . 1

Which result was noted for this molecule in the test: "Cc1ccc2nc(-c3ccccc3)cn2c1" 1

In this assay, the call recorded for CCOC(=O)c1c(NC(C)=O)sc2c(OCC(O)CNC(C)(C)C)c(Br)ccc12 (configuration not stated) was what? 1

GET /call?item= COc1ccc(C2NCCc3c2[nH]c2ccccc32)cc1COc1ccc(F)cc1 (configuration not stated) returns the recorded outcome of this test. 1

// param item: "COCCCNC(=O)c1ccc(Cn2c(=O)c3ccccc3n(Cc3ccccc3C#N)c2=O)cc1" ; yields the recorded call 1

Write down the call the test reported for this molecule. Item: "Cc1c(C(=O)N2CCN(c3ccc(F)cc3)CC2)sc2ncnc(N3CCN(c4ccccn4)CC3)c12" 1

What did this assay record as the result for "Cc1cc(C)c2c(N)c3ccccc3nc2n1" ? 0

Kindly provide the recorded test outcome for the following molecule: COC1CC(C)C(OC)c2cc(O)cc(c2O)NC(=O)C(C)=CC=CC(C)C(OC(N)=O)C(C)=CC(C)C1OC (configuration not stated) 1

Given CC(=O)N1CCCC(c2cc(C(=O)Nc3ccccc3)no2)C1 (configuration not stated) , state the outcome it received in this test. 1

Recorded call for CCC(=C(c1ccc(OC)cc1)c1ccc(OC)cc1)c1cn(CC(O)CN2CCN(C)CC2)c2ccccc12 (configuration not stated) ? 1

# fetch the recorded call for "COc1cccc(/C=N/NC(=O)c2ccc(-c3ccccc3)cc2)c1O" here 1

What was the test verdict on "COc1ccc(-c2cc(C(=O)N3CCN(c4ccccc4F)CC3)c3ccccc3n2)c(OC)c1" ? 1

Assay outcome for "CC(C)N1CCc2c(sc(NC(=O)c3cc4cc([N+](=O)[O-])ccc4s3)c2C(N)=O)C1" : what was it? 0

Look up the recorded call for CC(C)CC(N)c1csc(Nc2ccc(C(=O)c3ccccc3)cc2)n1 (configuration not stated) in this test. 0

Write down the call the test reported for this molecule. Item: "COc1ccc(-n2ncc3c(N(C)C4CCCCC4)ncnc32)cc1" 0

GET /call?item= COc1ccc(CC(N)c2csc(Nc3cccc(OC)n3)n2)cc1 (configuration not stated) returns the recorded outcome of this test. 1

What did this assay record as the result for "Cc1ccccc1OCC(=O)Nc1cccc(C(=O)O)c1" ? 1

Assay result, entry "FC(F)Sc1ccc(NC(=S)NC(c2ccccc2)c2ccccc2)cc1" — outcome? 1

Could you check what this test reported for "c1ccc(C(=NNc2nc3ccccc3s2)c2ccccn2)cc1" ? 1

Could you kindly confirm the outcome this assay logged for "COc1ccc(C[C@H]2CN3C(=NC[C@@H]3Cc3ccc(O)cc3)N2C[C@H](C)NC(=O)c2ccc(C)c(Br)c2)cc1" ? 0

Which outcome was entered for the molecule "N#Cc1c(N)nc(SCc2ccncc2)c(C#N)c1-c1cccs1" in this test? 1

Can you look up the reported call for "CCN(CC)CCNC(=O)c1ccc(NC(=O)c2cccc(S(=O)(=O)N(C)C3CCCCC3)c2)cc1" for me? 0

Please state the recorded outcome for this molecule: "Fc1ccc(-c2nnc(NC3=NCCCCC3)o2)cc1" 1

Please let me know the test result on file for "Nc1nonc1-n1nnc(C(=O)N/N=C/c2cc(Br)ccc2O)c1CNc1ccccc1" . 1

# fetch the recorded call for "O=C(CN1C(=O)c2ccccc2S1(=O)=O)c1ccc2c(c1)OCCO2" here 1

Outcome? CC(NS(=O)(=O)OCC(Cl)(Cl)Cl)c1ccc(C(C)(C)C)cc1 (configuration not stated) 0

Field: outcome | Entry: "Cc1ccc(OCC(=O)c2cc(C)n(-c3ccccc3)c2C)c([N+](=O)[O-])n1" 0

Please let me know the test result on file for "CCOC(=O)Cc1csc(NC(=S)NC(=O)c2ccc(Cl)cc2)n1" . 1

I'd appreciate the recorded outcome for "COc1ccccc1CN(C)C(=O)c1cc(-c2cc(OC)c(OC)c(OC)c2)nc2ccccc12" from this test. 0

// return assay outcome for CC(=O)c1cccc(-c2ccnc3c2CC(C(=O)Nc2cccc(NS(C)(=O)=O)c2)O3)c1 (configuration not stated) 1

Recorded test outcome, item N#Cc1cc2c(nc1SC1CC(=O)N(c3ccccc3)C1=O)CCC2 (configuration not stated) 0

Assay result, entry "Cc1ccc2nc(-c3ccc4c(c3)OCCO4)cn2c1" — outcome? 1

Check the results log: what was the call for "CCN(Cc1ccccc1)S(=O)(=O)c1ccc(C(=O)N(CCCN(C)C)c2nc3cc4c(cc3s2)OCCO4)cc1" ? 0

Hi, do you know how "O=C(c1ccoc1)N1CCN(c2cc(-c3ccccc3)nc3cc(-c4ccccc4)nn23)CC1" came out in this test? 1

Write down the call the test reported for this molecule. Item: "CCN(Cc1ccccc1)S(=O)(=O)c1ccc(C(=O)N(CCCN(C)C)c2nc3cc4c(cc3s2)OCO4)cc1" 1

What did the test return for "O=C1c2ccccc2S(=O)(=O)N1Cc1nc2ccccc2s1" ? 1

// param item: "CC(=O)Nc1ccc(S(=O)(=O)N(Cc2cccnc2)Cc2cc3ccccc3[nH]c2=O)cc1" ; yields the recorded call 0

// return assay outcome for CCCOc1ccc(NC(=O)CC2C(=O)N(CC)C(=S)N2CCCN2CCN(Cc3ccccc3)CC2)cc1 (configuration not stated) 1

Called result for "CN(C)c1ccc(NC(=S)c2ccccn2)cc1" 1

Hi, sorry to bother you, what did the test record for "COCCn1c(C)cc(C(=O)CSc2nnc(C)s2)c1C" ? 1

Entry CCCC(=O)N1CCCC(c2cc(C(=O)Nc3ccccc3)no2)C1 (configuration not stated) : call = ? 1
